B1: library; numbered along this chain (parent)
chain: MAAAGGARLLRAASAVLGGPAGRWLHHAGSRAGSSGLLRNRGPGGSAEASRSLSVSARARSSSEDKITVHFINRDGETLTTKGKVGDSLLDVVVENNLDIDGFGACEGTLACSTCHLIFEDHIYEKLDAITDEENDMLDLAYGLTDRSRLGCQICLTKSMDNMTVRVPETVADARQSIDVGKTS

- Variants of: B1
- runDescription: scaled log2 fold change in cell abundance, elesclomol vs control (0 = silent mean, 1 = nonsense mean) (scaled log2 ratio); higher = higher viability under elesclomol (loss of FDX1 cuproptosis function);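 also: variant abundance is its share of total variant reads in each endpoint sample, from next-generation sequencing of the integrated ORF PCR-amplified out of genomic DNA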
- conditionsUsed: with ABC1 FDX1 KO; elesclomol 5 nM; glucose 10 mM; 14 days
Measured scaled log2 fold change accompanies every entry in the list below.
Give the figure only, with no unit attached.

[[record]]
mutantcode = "S52F"
recordedresult = 0.556

[[record]]
mutantcode = "A3Q"
recordedresult = 0.292

[[record]]
mutantcode = "K82P"
recordedresult = -0.285


Now for the variant whose scaled log2 fold change we want.
So, E48A ? Its scaled log2 fold change was 0.411
